# systemName: HCV polymerase 1A (Δ21 NS5B, H77) (Hepatitis C virus genotype 1a, UniProt P27958)
# Construct: 20 to 50 nM Δ21 NS5B
# Sequence (P27958 2421-2990, stated change not applied): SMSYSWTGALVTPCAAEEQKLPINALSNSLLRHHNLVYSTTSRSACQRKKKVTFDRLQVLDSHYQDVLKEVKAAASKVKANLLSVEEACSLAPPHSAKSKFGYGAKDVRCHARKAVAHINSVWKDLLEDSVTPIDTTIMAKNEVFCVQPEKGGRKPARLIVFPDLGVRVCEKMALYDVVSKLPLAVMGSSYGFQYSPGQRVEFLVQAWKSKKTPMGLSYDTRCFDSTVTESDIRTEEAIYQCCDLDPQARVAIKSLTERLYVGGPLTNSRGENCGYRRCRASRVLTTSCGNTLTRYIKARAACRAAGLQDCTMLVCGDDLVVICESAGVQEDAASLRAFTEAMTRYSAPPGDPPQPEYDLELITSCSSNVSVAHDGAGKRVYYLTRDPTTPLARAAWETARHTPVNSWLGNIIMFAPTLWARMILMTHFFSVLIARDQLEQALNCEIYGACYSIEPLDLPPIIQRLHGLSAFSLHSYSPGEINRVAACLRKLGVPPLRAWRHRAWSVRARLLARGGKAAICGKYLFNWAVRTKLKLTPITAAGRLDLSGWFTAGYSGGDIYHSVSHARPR
# assayText: biochemical
# conditions: IC50 1a
# Method: HCV Polymerase Inhibition Assay The reaction was initiated by the addition of 20 μM CTP, 20 μM ATP, 1 μM ^3H-UTP (10 mCi/umol), 5 nM template RNA and 0.1 U/μl RNase inhibitor (RNasin, Promega), and allowed to proceed for 2 to 4 h at room temperature. Reaction volume was 50 μl. […] After air-drying, 30 μl of Microscint 20 scintillation cocktail (Packard) was added to each well, and the retained cpm were determined by scintillation counting. […]
pIC50: −log10 of the molar value.
# maps each entry to its pIC50

Q. I would be grateful if you could share the reported pIC50 for COc1c(N(C)C(=O)c2ccc(NS(C)(=O)=O)cc2)cc(N2CCC(=O)NC2=O)cc1C(C)(C)C .
A. 6.00 to 7.00

Q. Request: COc1ccc(OC)c(S(=O)(=O)Nc2ccc(NC(=O)c3cc(N4CCC(=O)NC4=O)cc(C(C)(C)C)c3OC)cc2)c1
A. 6.00 to 7.00

Q. Request: CC(C)(C)c1cc(-c2ccc3c(c2)CC/C3=N\NS(C)(=O)=O)cc(-n2ccc(=O)[nH]c2=O)c1
A. 7.00 to 8.00

Next:
Q. I would be grateful if you could share the reported pIC50 for CC(C)(C)c1cc(N2CCC(=O)NC2=O)cc(C(=O)Nc2ccc3ncccc3c2)c1O .
A. < 6.00

Q. Request: COc1c(C(=O)Nc2ccc(OCC(N)=O)cc2)cc(N2CCC(=O)NC2=O)cc1C(C)(C)C
A. < 6.00

Q. Request: COc1c(C(=O)Nc2ccc(NS(C)(=O)=O)cc2)cc(N2CCC(=O)NC2=O)cc1C(C)(C)C
A. 7.00 to 8.00

Q. Request: COc1c(-c2ccc3c(c2)CC[C@@H]3CNS(C)(=O)=O)cc(-n2ccc(=O)[nH]c2=O)cc1C(C)(C)C (single isomer, unassigned)
A. > 8.00

Q. Request: COc1c(C#Cc2ccc(NS(C)(=O)=O)c(Cl)c2)cc(N2CCC(=O)NC2=O)cc1C(C)(C)C
A. 7.00 to 8.00
